run description: Human HepG2 cell viability assay in 384 well format
Format: toxicity, cell-based
Parameters: dose 125 nL, time 70.5 hour; concentration not given beside the values
condition summary: HepG2 cells, read-out: Inhibition
Readings of cytotoxicity at 70.5 h for the listed molecules
Entry rule: numbers only, all in %.

Recorded cytotoxicity at 70.5 h (molecule O=c1c2cccc(F)c2ncn1CCN1CCOCC1 ): -3.65

Memo: CCC(O)(CNCc1cc[nH]n1)c1ccc(Br)cc1 (stereo not drawn) , reported cytotoxicity at 70.5 h: 6.78

// sample CC(=O)NCCNC(=O)c1cnc(C(C)(C)C)s1 , its cytotoxicity at 70.5 h was -8.27

get_value(item= CCCc1nccn1-c1cccc(CN2CCCC2)c1 , readout=cytotoxicity at 70.5 h) returns -2.36

Per the records, this molecule ( CC(C)(C)C(=O)N1CCC(n2cc(C3(O)CCCC3)nn2)CC1 ) has cytotoxicity at 70.5 h equal to -9.39

get_value(item= O=C(COCC(F)(F)F)NC1CCCc2cc(OC(F)F)ccc21 (stereo not drawn) , readout=cytotoxicity at 70.5 h) returns -6.74

What the record says about COCC(=O)N1CCCC(Cc2cnc(-c3c(C)n[nH]c3C)cn2)C1 (stereo not drawn) : cytotoxicity at 70.5 h is 0.347

Short answer for CCOC[C@@H]1CCC[C@]12CN(S(=O)(=O)c1cn(C)cn1)CCO2 : cytotoxicity at 70.5 h was -5.13

For reference, reported cytotoxicity at 70.5 h for O=C(c1cccs1)N1CC(Oc2ccccc2Cl)C1 stands at -0.814

The molecule listed as c1ccc(-n2cc(CN3CCCC3Cn3cccn3)nn2)cc1 (stereo not drawn) has a reported cytotoxicity at 70.5 h of -10.7

Entry under test: Cc1cc(OCC(=O)N2CCCC(c3noc(C)n3)C2)no1 (stereo not drawn) . Its cytotoxicity at 70.5 h was -5.48

Origin of measurements: ChEMBL document CHEMBL3507680
